# Test system: RNA (Drosophila melanogaster ribosomal RNA)
# assay_overview: High intensity photoaddition (covalent binding) to RNA
# experimental_setup: 20 min irradiation, 25 μg/ml RNA, psoralen:base pair 1:3
Where a name gives a salt, the structure may show the parent alone.
readout_name: B = percent of added psoralen covalently bound (%)
Note: unit % is implicit; provide only the numeric part.

# compound, unit_string, measured
measured = [
    ("Cc1cc2cc3c(C)cc(=O)oc3c(C)c2o1 [trioxsalen, 4,5',8-trimethyl psoralen, reference compound]", "%", 13.0),
    ("COCc1c(C)oc2c(C)c3oc(=O)cc(C)c3cc12", "%", 1.2),
    ("Cc1oc2c(C)c3oc(=O)cc(C)c3cc2c1CN [hydrochloride]", "%", 59.4),
]

Here is another compound to look at.
Look up B = percent of added psoralen covalently bound: Cc1oc2c(C)c3oc(=O)cc(C)c3cc2c1CO
11.5

----------
# Test system: RNA (Drosophila melanogaster ribosomal RNA)
# assay_overview: High intensity photoaddition (covalent binding) to RNA
# experimental_setup: 40 min irradiation, 25 μg/ml RNA, psoralen:base pair 1:3
Where a name gives a salt, the structure may show the parent alone.
# B = percent of added psoralen covalently bound listing for each entry below
Note: unit % is implicit; provide only the numeric part.

Worked cases, answers included:
# compound, measured
measured = [
    ("COCc1c(C)oc2c(C)c3oc(=O)cc(C)c3cc12", 1.4),
    ("Cc1cc2cc3c(C)cc(=O)oc3c(C)c2o1 [trioxsalen, 4,5',8-trimethyl psoralen, reference compound]", 13.9),
]

Look up B = percent of added psoralen covalently bound: Cc1oc2c(C)c3oc(=O)cc(C)c3cc2c1CN [hydrochloride]
57.2

Look up B = percent of added psoralen covalently bound: Cc1oc2c(C)c3oc(=O)cc(C)c3cc2c1CO
12.1

----------
# Tested on: RNA (Drosophila melanogaster ribosomal RNA)
# assay_overview: High intensity photoaddition (covalent binding) to RNA
# experimental_setup: 40 min irradiation, 25 μg/ml RNA, psoralen:base pair 1:3
Counter-ions that a name gives are not always drawn.
# A (footnote 1, shown as drawing 11) listing for each entry below
// no unit string in output, number only

Worked cases, answers included:
# molecule, study_target, A (footnote 1, shown as drawing 11)
measured = [
    ("Cc1oc2c(C)c3oc(=O)cc(C)c3cc2c1CO", "RNA (Drosophila melanogaster ribosomal RNA)", 24.8),
    ("Cc1oc2c(C)c3oc(=O)cc(C)c3cc2c1CN [hydrochloride]", "RNA (Drosophila melanogaster ribosomal RNA)", 5.3),
]

Look up A (footnote 1, shown as drawing 11): Cc1cc2cc3c(C)cc(=O)oc3c(C)c2o1 [trioxsalen, 4,5',8-trimethyl psoralen, reference compound]
21.6

Look up A (footnote 1, shown as drawing 11): COCc1c(C)oc2c(C)c3oc(=O)cc(C)c3cc12
216.8

----------
# (PS)/(S) for RNA in Saturated Solution listing for each entry below
# System: Drosophila melanogaster ribosomal RNA
# assay_overview: Equilibrium dialysis, non-covalent binding to RNA
# experimental_setup: saturated solution; occupied/unoccupied binding sites
Counter-ions that a name gives are not always drawn.
// no unit string in output, number only

Look up (PS)/(S) for RNA in Saturated Solution: Cc1oc2c(C)c3oc(=O)cc(C)c3cc2c1CN [hydrochloride]
1700

Look up (PS)/(S) for RNA in Saturated Solution: Cc1oc2c(C)c3oc(=O)cc(C)c3cc2c1CO
0.16

Look up (PS)/(S) for RNA in Saturated Solution: COCc1c(C)oc2c(C)c3oc(=O)cc(C)c3cc12
0.037

Look up (PS)/(S) for RNA in Saturated Solution: Cc1cc2cc3c(C)cc(=O)oc3c(C)c2o1 [trioxsalen, 4,5',8-trimethyl psoralen, reference compound]
0.026

----------
# Kd listing for each entry below
# study_target: Drosophila melanogaster ribosomal RNA
# assay_overview: Equilibrium dialysis, non-covalent binding to RNA
# experimental_setup: 0.01 M Tris, non-covalent binding
Structures can show the parent of a compound that is named as a salt.
Note: unit µM is implicit; provide only the numeric part.

Worked cases, answers included:
# compound, measured
records = [
    ("Cc1oc2c(C)c3oc(=O)cc(C)c3cc2c1CN [hydrochloride]", 20),
    ("Cc1oc2c(C)c3oc(=O)cc(C)c3cc2c1CO", 1000),
    ("Cc1cc2cc3c(C)cc(=O)oc3c(C)c2o1 [trioxsalen, 4,5',8-trimethyl psoralen, reference compound]", 100),
]

Here is another compound to look at.
Look up Kd: COCc1c(C)oc2c(C)c3oc(=O)cc(C)c3cc12
1000

----------
# assay_overview: Solubility in pure water
# Type: physicochemical
# experimental_setup: pure water
Where a name gives a salt, the structure may show the parent alone.
readout_name: solubility
Just the number plus its unit, please.

Worked cases, answers included:
# molecule, solubility
measured = [
    ("COCc1c(C)oc2c(C)c3oc(=O)cc(C)c3cc12", "10 µg/mL"),
    ("Cc1cc2cc3c(C)cc(=O)oc3c(C)c2o1 [trioxsalen, 4,5',8-trimethyl psoralen, reference compound]", "0.6 µg/mL"),
    ("Cc1oc2c(C)c3oc(=O)cc(C)c3cc2c1CO", "41 µg/mL"),
]

Here is another molecule to look at.
Look up solubility: Cc1oc2c(C)c3oc(=O)cc(C)c3cc2c1CN [hydrochloride]
10000 µg/mL

----------
# Tested on: RNA (Drosophila melanogaster ribosomal RNA)
# assay_overview: High intensity photoaddition (covalent binding) to RNA
# experimental_setup: 60 min irradiation, 25 μg/ml RNA, psoralen:base pair 1:3
Counter-ions that a name gives are not always drawn.
readout_name: A (footnote 1, shown as drawing 11)
// no unit string in output, number only

Worked cases, answers included:
# compound, A (footnote 1, shown as drawing 11)
data = [
    ("COCc1c(C)oc2c(C)c3oc(=O)cc(C)c3cc12", 183.4),
    ("Cc1oc2c(C)c3oc(=O)cc(C)c3cc2c1CO", 23.5),
    ("Cc1cc2cc3c(C)cc(=O)oc3c(C)c2o1 [trioxsalen, 4,5',8-trimethyl psoralen, reference compound]", 20.6),
]

Here is another compound to look at.
Return A (footnote 1, shown as drawing 11) measured with RNA (Drosophila melanogaster ribosomal RNA) given this compound: Cc1oc2c(C)c3oc(=O)cc(C)c3cc2c1CN [hydrochloride]
5.3
